System: Rattus norvegicus
Assay: Intrinsic clearance in rat at 3 mg/kg
Format: ADME, organism-based
Set-up: dose 3 mg/kg
Setup Conditions: in vivo
CL values by entry
Property Measured: CL (mL/min/kg)

[[record]]
molecular_string = "CN(C)CCn1ncc2c1nc(N)n1c(=O)n(Cc3cccc(Cl)c3)nc21"
property_measured = "CL"
measure_unit = "mL/min/kg"
quantitative_readout = 37.3

[[record]]
molecular_string = "C=Cn1ncc2c1nc(N)n1c(=O)n(Cc3cccc(Cl)c3)nc21"
property_measured = "CL"
measure_unit = "mL/min/kg"
quantitative_readout = 27.7

[[record]]
molecular_string = "Nc1nc2c(c3nn(Cc4ccccc4)c(=O)n13)CCc1ccccc1-2"
property_measured = "CL"
measure_unit = "mL/min/kg"
quantitative_readout = 14.7

[[record]]
molecular_string = "C=Cn1ncc2c1nc(N)n1c(=O)n(Cc3ccccc3)nc21"
property_measured = "CL"
measure_unit = "mL/min/kg"
quantitative_readout = 24.4


* * *

Assay: Solubility of the compound at pH 7.4
Assay type: physicochemical
Setup Conditions: buffer, read-out: solubility
Each record here notes measured solubility.
Property Measured: solubility

[[record]]
molecular_string = "C=Cn1ncc2c1nc(N)n1c(=O)n(CC3CC3)nc21"
result = "175 µM"

[[record]]
molecular_string = "Nc1nc2c(cnn2CCN2CCOCC2)c2nn(Cc3cccc(Cl)c3)c(=O)n12"
result = "25 µM"

[[record]]
molecular_string = "Nc1nc2c(cnn2CCN2CCOCC2)c2nn(CC3CC3)c(=O)n12"
result = "> 250 µM"

[[record]]
molecular_string = "Nc1nc2c(cnn2CCN2CCC3(CC2)OCCO3)c2nn(Cc3ccccc3)c(=O)n12"
result = "75 µM"

[[record]]
molecular_string = "COCCOc1ccc(N2CCN(CCn3ncc4c3nc(N)n3c(=O)n(Cc5ccccc5)nc43)CC2)c(F)c1"
result = "12 µM"

[[record]]
molecular_string = "Nc1nc(-c2cccnc2)cc2nn(Cc3ccccc3)c(=O)n12"
result = "100 µM"

[[record]]
molecular_string = "C=Cn1ncc2c1nc(N)n1c(=O)n(Cc3cccc(Cl)c3)nc21"
result = "12 µM"

[[record]]
molecular_string = "CN(C)CCn1ncc2c1nc(N)n1c(=O)n(Cc3ccccc3)nc21"
result = "> 250 µM"

[[record]]
molecular_string = "COCCOc1ccc(N2CCN(CCn3ncc4c3nc(N)n3c(=O)n(Cc5cccc(Cl)c5)nc43)CC2)c(F)c1"
result = "12 µM"

[[record]]
molecular_string = "Nc1nc(-c2cccc(CO)c2)cc2nn(Cc3ccccc3)c(=O)n12"
result = "100 µM"

[[record]]
molecular_string = "CC(C)(C)OC(=O)N1CCN(CCn2ncc3c2nc(N)n2c(=O)n(Cc4cccc(Cl)c4)nc32)CC1"
result = "25 µM"

[[record]]
molecular_string = "CC(C)(C)OC(=O)N1CCN(CCn2ncc3c2nc(N)n2c(=O)n(Cc4ccccc4)nc32)CC1"
result = "100 µM"

[[record]]
molecular_string = "Nc1nc2c(cnn2CCN2CCOCC2)c2nn(Cc3ccccc3)c(=O)n12"
result = "175 µM"

[[record]]
molecular_string = "CN(C)CCn1ncc2c1nc(N)n1c(=O)n(Cc3cccc(Cl)c3)nc21"
result = "18 µM"

[[record]]
molecular_string = "Nc1nc2c(cnn2CCN2CCN(c3cnccn3)CC2)c2nn(Cc3cccc(Cl)c3)c(=O)n12"
result = "25 µM"

[[record]]
molecular_string = "CN(C)CCn1ncc2c1nc(N)n1c(=O)n(CC3CC3)nc21"
result = "> 250 µM"

[[record]]
molecular_string = "CS(=O)(=O)N1CCN(CCn2ncc3c2nc(N)n2c(=O)n(Cc4cccc(Cl)c4)nc32)CC1"
result = "12 µM"

[[record]]
molecular_string = "COc1ccc(-c2cc3nn(Cc4ccccc4)c(=O)n3c(N)n2)cc1"
result = "25 µM"

[[record]]
molecular_string = "C=Cn1ncc2c1nc(N)n1c(=O)n(Cc3ccccc3)nc21"
result = "37 µM"

[[record]]
molecular_string = "Nc1nc2c(cnn2CCN2CCN(c3cnccn3)CC2)c2nn(Cc3ccccc3)c(=O)n12"
result = "50 µM"

[[record]]
molecular_string = "CS(=O)(=O)N1CCN(CCn2ncc3c2nc(N)n2c(=O)n(Cc4ccccc4)nc32)CC1"
result = "75 µM"


* * *

Here the recorded Ratio Ki is given for each entry.
Organism: Homo sapiens
Assay: Ratio of Ki for human adenosine A1 receptor to Ki for human adenosine A2A receptor
Property Measured: Ratio Ki

[[record]]
molecular_string = "COCCOc1ccc(N2CCN(CCn3ncc4c3nc(N)n3c(=O)n(Cc5cccc(Cl)c5)nc43)CC2)c(F)c1"
quantitative_readout = 90

[[record]]
molecular_string = "Nc1nc(-c2cccnc2)cc2nn(Cc3ccccc3)c(=O)n12"
quantitative_readout = 2

[[record]]
molecular_string = "COc1ccc(-c2cc3nn(Cc4ccccc4)c(=O)n3c(N)n2)cc1"
quantitative_readout = 2

[[record]]
molecular_string = "Nc1nc(-c2cccc(CO)c2)cc2nn(Cc3ccccc3)c(=O)n12"
quantitative_readout = 1

[[record]]
molecular_string = "C=Cn1ncc2c1nc(N)n1c(=O)n(Cc3ccccc3)nc21"
quantitative_readout = 1120

[[record]]
molecular_string = "Nc1nc(-c2ccccc2)cc2nn(Cc3ccccc3)c(=O)n12"
quantitative_readout = 26

[[record]]
molecular_string = "Nc1nc(-c2ccccc2)cc2nc(-c3ccco3)nn12"
quantitative_readout = 3

[[record]]
molecular_string = "CS(=O)(=O)N1CCN(CCn2ncc3c2nc(N)n2c(=O)n(Cc4cccc(Cl)c4)nc32)CC1"
quantitative_readout = 133

[[record]]
molecular_string = "Nc1nc2c(cnn2CCN2CCC3(CC2)OCCO3)c2nn(Cc3ccccc3)c(=O)n12"
quantitative_readout = 162

[[record]]
molecular_string = "Nc1nc2c(cnn2CCN2CCN(c3cnccn3)CC2)c2nn(Cc3ccccc3)c(=O)n12"
quantitative_readout = 110

[[record]]
molecular_string = "CS(=O)(=O)N1CCN(CCn2ncc3c2nc(N)n2c(=O)n(Cc4ccccc4)nc32)CC1"
quantitative_readout = 157

[[record]]
molecular_string = "Nc1nc2c(cnn2CCN2CCC(N3CCOCC3)CC2)c2nn(Cc3ccccc3)c(=O)n12"
quantitative_readout = 53

[[record]]
molecular_string = "C=Cn1ncc2c1nc(N)n1c(=O)n(CC3CC3)nc21"
quantitative_readout = 55

[[record]]
molecular_string = "Nc1nc2c(cnn2CCN2CCOCC2)c2nn(Cc3ccccc3)c(=O)n12"
quantitative_readout = 156

[[record]]
molecular_string = "Nc1nc2c(cnn2CCN2CCC3(CC2)OCCO3)c2nn(Cc3cccc(Cl)c3)c(=O)n12"
quantitative_readout = 127

[[record]]
molecular_string = "CC(C)(C)OC(=O)N1CCN(CCn2ncc3c2nc(N)n2c(=O)n(Cc4cccc(Cl)c4)nc32)CC1"
quantitative_readout = 2

[[record]]
molecular_string = "Nc1nc2c(cnn2CCN2CCN(c3cnccn3)CC2)c2nn(Cc3cccc(Cl)c3)c(=O)n12"
quantitative_readout = 109

[[record]]
molecular_string = "Nc1nc2c(cnn2CCN2CCOCC2)c2nn(Cc3cccc(Cl)c3)c(=O)n12"
quantitative_readout = 99

[[record]]
molecular_string = "CN(C)CCn1ncc2c1nc(N)n1c(=O)n(Cc3cccc(Cl)c3)nc21"
quantitative_readout = 269

[[record]]
molecular_string = "Nc1nc2c(cnn2CCN2CCOCC2)c2nn(CC3CC3)c(=O)n12"
quantitative_readout = 4


* * *

Study Target: Adenosine receptor A2a (Homo sapiens, UniProt P29274)
Sequence (P29274 whole entry): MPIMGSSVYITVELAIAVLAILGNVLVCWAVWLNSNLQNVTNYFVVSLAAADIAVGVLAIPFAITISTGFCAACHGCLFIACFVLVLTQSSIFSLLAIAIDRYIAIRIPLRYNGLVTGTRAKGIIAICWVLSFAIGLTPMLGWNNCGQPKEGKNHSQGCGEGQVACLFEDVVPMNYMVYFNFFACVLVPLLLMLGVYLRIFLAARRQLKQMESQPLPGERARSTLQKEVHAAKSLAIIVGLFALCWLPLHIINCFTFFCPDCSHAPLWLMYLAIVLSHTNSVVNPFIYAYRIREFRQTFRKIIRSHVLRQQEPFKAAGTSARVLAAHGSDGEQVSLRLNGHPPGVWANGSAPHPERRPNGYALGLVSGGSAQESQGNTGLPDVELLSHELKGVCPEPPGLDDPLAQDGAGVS
Assay: Antagonist activity against human adenosine A2A receptor
Property Measured: Ki

[[record]]
molecular_string = "CS(=O)(=O)N1CCN(CCn2ncc3c2nc(N)n2c(=O)n(Cc4cccc(Cl)c4)nc32)CC1"
result = "10.5 nM"

[[record]]
molecular_string = "Nc1nc2c(cnn2CCN2CCOCC2)c2nn(Cc3cccc(Cl)c3)c(=O)n12"
result = "14.2 nM"

[[record]]
molecular_string = "Nc1nc2c(cnn2CCN2CCN(c3cnccn3)CC2)c2nn(Cc3ccccc3)c(=O)n12"
result = "12.7 nM"

[[record]]
molecular_string = "Nc1nc(-c2cccc(CO)c2)cc2nn(Cc3ccccc3)c(=O)n12"
result = "1700 nM"

[[record]]
molecular_string = "Nc1nc(-c2ccccc2)cc2nc(-c3ccco3)nn12"
result = "7 nM"

[[record]]
molecular_string = "Nc1nc2c(cnn2CCN2CCC(N3CCOCC3)CC2)c2nn(Cc3ccccc3)c(=O)n12"
result = "28.4 nM"

[[record]]
molecular_string = "COCCOc1ccc(N2CCN(CCn3ncc4c3nc(N)n3c(=O)n(Cc5cccc(Cl)c5)nc43)CC2)c(F)c1"
result = "15.6 nM"

[[record]]
molecular_string = "C=Cn1ncc2c1nc(N)n1c(=O)n(Cc3cccc(Cl)c3)nc21"
result = "0.4 nM"

[[record]]
molecular_string = "CC(C)(C)OC(=O)N1CCN(CCn2ncc3c2nc(N)n2c(=O)n(Cc4cccc(Cl)c4)nc32)CC1"
result = "556 nM"

[[record]]
molecular_string = "C=Cn1ncc2c1nc(N)n1c(=O)n(Cc3ccccc3)nc21"
result = "0.3 nM"

[[record]]
molecular_string = "Nc1nc2c(cnn2CCN2CCN(c3ccc(F)cc3F)CC2)c2nn(Cc3ccccc3)c(=O)n12"
result = "> 1300 nM"

[[record]]
molecular_string = "Nc1nc2c(cnn2CCN2CCOCC2)c2nn(CC3CC3)c(=O)n12"
result = "381 nM"

[[record]]
molecular_string = "C=Cn1ncc2c1nc(N)n1c(=O)n(CC3CC3)nc21"
result = "27.4 nM"

[[record]]
molecular_string = "Nc1nc2c(cnn2CCN2CCN(c3ccc(F)cc3F)CC2)c2nn(Cc3cccc(Cl)c3)c(=O)n12"
result = "23.4 nM"


Data provenance: ChEMBL document CHEMBL1759931
